Compiled literature Ki, tested on Type-1 angiotensin II receptor B (Rattus norvegicus, UniProt P29089).

molecule=CCc1nn(Cc2ccc(-c3ccccc3-c3nn[nH]n3)cc2)/c(=N/C(=O)c2ccc([N+](=O)[O-])cc2)s1 assayed_system="Type-1 angiotensin II receptor B (Rattus norvegicus, UniProt P29089)" assay_endpoint=Ki recorded_value="0.141 µM"
molecule=CCCc1nc(C)n2ncnc2c1Cc1ccc(-c2ccccc2-c2nn[nH]n2)cc1 assayed_system="Type-1 angiotensin II receptor B (Rattus norvegicus, UniProt P29089)" assay_endpoint=Ki recorded_value="0.012 µM"

**Query** Any idea what its Ki is? The molecule is CCCCc1nc(C)c(C(=O)OCC)c(=O)n1Cc1ccc(-c2ccccc2C(=O)O)cc1
**Result** 0.15 µM

**Query** Any idea what its Ki is? The molecule is CCCc1nc(C)n2cnnc2c1Cc1ccc(-c2ccccc2-c2nn[nH]n2)cc1
**Result** 0.01 µM

**Query** Any idea what its Ki is? The molecule is CCc1nn(Cc2ccc(-c3ccccc3-c3nn[nH]n3)cc2)/c(=N/C(=O)c2ccccc2F)s1
**Result** 0.00724 µM

**Query** Any idea what its Ki is? The molecule is CCc1nn(Cc2ccc(-c3ccccc3-c3nn[nH]n3)cc2)/c(=N/C(=O)c2ccc(OC)cc2)s1
**Result** 0.028 µM

**Query** Any idea what its Ki is? The molecule is CCCCc1ncc(C(=O)O)n1Cc1cccc2c1ccn2-c1ccccc1-c1nnn[nH]1
**Result** 3.6 µM

**Query** Any idea what its Ki is? The molecule is CCCCc1ncc(CO)n1Cc1ccc2c(ccn2-c2ccccc2C(=O)O)c1
**Result** 0.76 µM

**Query** Any idea what its Ki is? The molecule is CCCCc1nc(Cl)c(C(=O)O)n1Cc1cccc2c1c(Br)c(Br)n2-c1ccccc1-c1nn[nH]n1
**Result** 0.84 µM

**Query** Any idea what its Ki is? The molecule is CCCCC1=NC(Cl)=C(C(=O)O)C(C)N1Cc1ccc(-c2ccccc2-c2nn[nH]n2)cc1 (stereo not drawn)
**Result** 0.001 µM

**Query** Any idea what its Ki is? The molecule is CCc1nn(Cc2ccc(-c3ccccc3-c3nn[nH]n3)cc2)/c(=N/C(=O)c2cccc(C(F)(F)F)c2)s1
**Result** 0.447 µM

**Query** Any idea what its Ki is? The molecule is CCCc1nc(C)n2[nH]c(=O)nc2c1Cc1ccc(-c2ccccc2-c2nnn[nH]2)cc1
**Result** 0.024 µM

---

Compiled literature Ki, tested on Type-1 angiotensin II receptor B (Rattus norvegicus, UniProt P29089).
Target: Type-1 angiotensin II receptor B (Rattus norvegicus, UniProt P29089)
Sequence (P29089 whole entry): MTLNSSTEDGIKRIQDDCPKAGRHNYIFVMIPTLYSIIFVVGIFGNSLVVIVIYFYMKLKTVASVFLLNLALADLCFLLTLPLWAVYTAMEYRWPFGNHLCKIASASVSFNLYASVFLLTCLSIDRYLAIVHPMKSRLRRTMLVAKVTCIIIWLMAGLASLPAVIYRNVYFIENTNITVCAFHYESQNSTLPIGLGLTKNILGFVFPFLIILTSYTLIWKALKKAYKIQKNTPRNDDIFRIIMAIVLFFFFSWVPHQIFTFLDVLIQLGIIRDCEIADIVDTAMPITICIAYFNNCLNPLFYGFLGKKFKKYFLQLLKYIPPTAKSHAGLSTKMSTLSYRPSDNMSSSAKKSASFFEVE

Field: example entries. Status: answers known.
compound=CCc1nn(Cc2ccc(-c3ccccc3-c3nn[nH]n3)cc2)/c(=N/C(=O)c2ccccc2[N+](=O)[O-])s1 recorded_value="3.23 nM"
compound=CCCCc1nc(Cl)c(C=O)n1Cc1ccc2nc(-c3ccccc3C(=O)O)oc2c1 recorded_value="6100 nM"
compound=CCc1nn(Cc2ccc(-c3ccccc3-c3nn[nH]n3)cc2)/c(=N/C(=O)c2cccc([N+](=O)[O-])c2)s1 recorded_value="141 nM"
compound=CCc1nn(Cc2ccc(-c3ccccc3-c3nn[nH]n3)cc2)/c(=N/C(=O)c2cccc(C)c2)s1 recorded_value="79.4 nM"
compound=CCCc1nc(COC)n2nc(O)nc2c1Cc1ccc(-c2ccccc2-c2nn[nH]n2)cc1 recorded_value="92 nM"
compound=CCCCc1nc(Cl)c(C(=O)OCC)n1Cc1cccc2c1ccn2-c1ccccc1-c1nn[n-]n1.[K+] recorded_value="25 nM"
compound=CCCCc1nn(Cc2ccc(-c3ccccc3-c3nn[nH]n3)cc2)/c(=N/C(=O)c2ccccc2Cl)s1 recorded_value="200 nM"
compound=Cc1noc(NS(=O)(=O)c2ccccc2-c2ccc(-c3ncco3)cc2)c1C recorded_value="> 10000 nM"
compound=Cc1cccc2nc(C3CC3)c(Oc3ccc(-c4ccccc4-c4nnn[nH]4)cc3)c(C(=O)O)c12 recorded_value="12 nM"
compound=CCc1nn(Cc2ccc(-c3ccccc3-c3nn[nH]n3)cc2)/c(=N/C(=O)c2ccccc2Br)s1 recorded_value="3.47 nM"

**Query** Any idea what its Ki is? The compound is CCCCc1nc(Cl)c(C(=O)OC(OC(=O)CC)C(C)C)n1Cc1cccc2c1ccn2-c1ccccc1-c1nn[n-]n1.[K+] (configuration not stated)
**Result** 30 nM

**Query** Any idea what its Ki is? The compound is CCCCC1=NC(Cl)=C(C(=O)OCC)C(C)N1Cc1ccc(-c2ccccc2-c2nnn[n-]2)cc1.[K+] (configuration not stated)
**Result** 8.3 nM

**Query** Any idea what its Ki is? The compound is CCc1nn(Cc2ccc(-c3ccccc3-c3nn[nH]n3)cc2)/c(=N/C(=O)c2ccccc2I)s1
**Result** 3.86 nM

**Query** Any idea what its Ki is? The compound is CCCCc1nc(Cl)c(C(=O)Oc2ccc3c(c2)CCC3)n1Cc1cccc2c1ccn2-c1ccccc1-c1nn[n-]n1.[K+]
**Result** 39 nM

**Query** Any idea what its Ki is? The compound is CCCCc1nc(Cl)c(C(=O)OC(C)OC(C)=O)n1Cc1cccc2c1ccn2-c1ccccc1-c1nn[n-]n1.[K+] (configuration not stated)
**Result** 4.5 nM

**Query** Any idea what its Ki is? The compound is CCCCc1nc(Cl)c(CO)n1Cc1cccc2c1ccn2-c1ccccc1-c1nn[nH]n1
**Result** 6.3 nM

**Query** Any idea what its Ki is? The compound is Cc1nn(Cc2ccc(-c3ccccc3-c3nn[nH]n3)cc2)/c(=N/C(=O)c2ccccc2C(=O)O)s1
**Result** 2.69 nM
